Origin of values: patent US20230212193A1

- ASSAY_SUMMARY: equilibrium solubility in aqueous media and simulated fluids
- Assay type: physicochemical
- MEASUREMENT_PARAMETERS: pH 4.5 acetate buffer (USP), aqueous buffer, thermodynamic from solid; pH 4.5 Acetate (USP), 37° C., 24-hour equilibration
MEASURED_ATTRIBUTE: solubility at 24 h
Your answer should be a number followed by the unit of measure.

Reported solubility at 24 h of COc1ccc(CN2C3CC2CN(c2ccc(-c4cc(OCC(C)(C)O)cn5ncc(C#N)c45)cn2)C3)cn1 [Form B] : 169 µg/mL

---

- ASSAY_SUMMARY: equilibrium solubility in aqueous media and simulated fluids
- Assay type: physicochemical
- MEASUREMENT_PARAMETERS: thermodynamic from solid; FeSSIF (fed-state simulated intestinal fluid, pH 5.0), 37° C., 24-hour equilibration
MEASURED_ATTRIBUTE: solubility at 24 h (µg/mL)
One number for each entry, in µg/mL.

Reported solubility at 24 h of COc1ccc(CN2C3CC2CN(c2ccc(-c4cc(OCC(C)(C)O)cn5ncc(C#N)c45)cn2)C3)cn1 [Form B] : 228

---

- ASSAY_SUMMARY: equilibrium solubility in aqueous media and simulated fluids
- Type: physicochemical
- MEASUREMENT_PARAMETERS: aqueous buffer, thermodynamic from solid; 0.01 N NaOH, 37° C., 24-hour equilibration
MEASURED_ATTRIBUTE: solubility at 24 h
Your answer should be a number followed by the unit of measure.

Reported solubility at 24 h of COc1ccc(CN2C3CC2CN(c2ccc(-c4cc(OCC(C)(C)O)cn5ncc(C#N)c45)cn2)C3)cn1 [Form B] : 1.1 µg/mL

---

- ASSAY_SUMMARY: equilibrium solubility in aqueous media and simulated fluids
- Assay type: physicochemical
- MEASUREMENT_PARAMETERS: pH 7.146, thermodynamic from solid; Water, 37° C., 24-hour equilibration
MEASURED_ATTRIBUTE: solubility at 24 h (µg/mL)
Numbers only, in µg/mL.

Reported solubility at 24 h of COc1ccc(CN2C3CC2CN(c2ccc(-c4cc(OCC(C)(C)O)cn5ncc(C#N)c45)cn2)C3)cn1 [Form B] : 3.6

---

- ASSAY_SUMMARY: equilibrium solubility in aqueous media and simulated fluids
- Format: physicochemical
- MEASUREMENT_PARAMETERS: pH 3.634, simulated gastric fluid, thermodynamic from solid; 0.01N HCl, 37° C., 24-hour equilibration
MEASURED_ATTRIBUTE: solubility at 24 h (µg/mL)
Give bare numbers, in µg/mL.

Reported solubility at 24 h of COc1ccc(CN2C3CC2CN(c2ccc(-c4cc(OCC(C)(C)O)cn5ncc(C#N)c45)cn2)C3)cn1 [Form B] : 4770

---

- ASSAY_SUMMARY: equilibrium solubility in aqueous media and simulated fluids
- Assay type: physicochemical
- MEASUREMENT_PARAMETERS: pH 2.644, thermodynamic from solid; SGF (simulated gastric fluid), 37° C., 24-hour equilibration; retained solids non-crystalline by XRPD
MEASURED_ATTRIBUTE: solubility at 24 h
Your answer should be a number followed by the unit of measure.

Reported solubility at 24 h of COc1ccc(CN2C3CC2CN(c2ccc(-c4cc(OCC(C)(C)O)cn5ncc(C#N)c45)cn2)C3)cn1 [Form B] : 1440 µg/mL

---

- ASSAY_SUMMARY: equilibrium solubility in aqueous media and simulated fluids
- Type: physicochemical
- MEASUREMENT_PARAMETERS: pH 7.5 phosphate buffer (USP), aqueous buffer, thermodynamic from solid; pH 7.5 Phosphate (USP), 37° C., 24-hour equilibration
MEASURED_ATTRIBUTE: solubility at 24 h
Your answer should be a number followed by the unit of measure.

Reported solubility at 24 h of COc1ccc(CN2C3CC2CN(c2ccc(-c4cc(OCC(C)(C)O)cn5ncc(C#N)c45)cn2)C3)cn1 [Form B] : 2.2 µg/mL

---

- ASSAY_SUMMARY: equilibrium solubility in aqueous media and simulated fluids
- Type: physicochemical
- MEASUREMENT_PARAMETERS: aqueous media, 37 °C, thermodynamic from solid; indicated by the aqueous solubility results; read-out: intrinsic solubility
MEASURED_ATTRIBUTE: solubility

Reported solubility of COc1ccc(CN2C3CC2CN(c2ccc(-c4cc(OCC(C)(C)O)cn5ncc(C#N)c45)cn2)C3)cn1 [Form B] : ~1 µg/mL

---

- ASSAY_SUMMARY: equilibrium solubility in aqueous media and simulated fluids
- Format: physicochemical
- MEASUREMENT_PARAMETERS: citrate/phosphate buffer pH 4.0, aqueous buffer, thermodynamic from solid; pH 4.0 Citrate/Phosphate, 37° C., 24-hour equilibration
MEASURED_ATTRIBUTE: solubility at 24 h (µg/mL)
Answers are plain numbers, in µg/mL.

Reported solubility at 24 h of COc1ccc(CN2C3CC2CN(c2ccc(-c4cc(OCC(C)(C)O)cn5ncc(C#N)c45)cn2)C3)cn1 [Form B] : 712

---

- ASSAY_SUMMARY: equilibrium solubility in aqueous media and simulated fluids
- Assay type: physicochemical
- MEASUREMENT_PARAMETERS: pH 6.0 phosphate buffer (USP), aqueous buffer, thermodynamic from solid; pH 6.0 Phosphate (USP), 37° C., 24-hour equilibration
- Method: Solubility studies were completed on the crystal form of selpercatinib described herein. Aqueous media covering the physiological pH range and three simulated fluids were used in these studies. A sufficient quantity of solid compound to saturate the volume of solvent is weighed into a vessel with approximately 1 mL of the specified solvent. […] The pH of the filtrate is recorded using calibrated scientific pH equipment. […]
MEASURED_ATTRIBUTE: solubility at 24 h (µg/mL)
Answers are plain numbers, in µg/mL.

Reported solubility at 24 h of COc1ccc(CN2C3CC2CN(c2ccc(-c4cc(OCC(C)(C)O)cn5ncc(C#N)c45)cn2)C3)cn1 [Form B] : 8.6
